# targetUnderTest: Receptor-type tyrosine-protein kinase FLT3 (Homo sapiens, UniProt P36888, ITD)
# test: Inhibition of recombinant FLT3 ITD mutant (unknown origin) by RBC kinase assay
Entries and their IC50 values follow.
Report as a plain number; the unit µM is understood.

Recorded results for 5 compounds are shown here.
smilesEntry | unitsLabel | IC50
C=CC(=O)NC/C=C/c1cc(OCCCN2CCOCC2)cc(O)c1C(=O)OC(C)C | µM | 0.5
COc1cc(O)c2c(c1)CCC[C@H](O)[C@H](O)C(=O)/C=C\C[C@H](C)OC2=O | µM | 0.036
CC(C)OC(=O)c1c(O)cc(OCCCN2CCOCC2)cc1/C=C/CN1C(=O)C=CC1=O | µM | 0.98
C=CC(=O)NC/C=C/c1cc(OCCc2ccc(F)cc2)cc(O)c1C(=O)OC(C)C | µM | 8.31
CC(C)OC(=O)c1c(O)cc(OCCN2CCOCC2)cc1CCCN1C(=O)C=CC1=O | µM | 8.87

Kindly review the next compound as well.
# input compound: CCN(CC)C/C=C/C(=O)NC/C=C/c1cc(OCCc2ccc(F)cc2)cc(O)c1C(=O)OC(C)C ; wanted: its IC50
1.11

---

Each entry below carries its recorded pIC50.
# targetUnderTest: Receptor-type tyrosine-protein kinase FLT3 (Homo sapiens, UniProt P36888)
# Sequence (P36888 whole entry): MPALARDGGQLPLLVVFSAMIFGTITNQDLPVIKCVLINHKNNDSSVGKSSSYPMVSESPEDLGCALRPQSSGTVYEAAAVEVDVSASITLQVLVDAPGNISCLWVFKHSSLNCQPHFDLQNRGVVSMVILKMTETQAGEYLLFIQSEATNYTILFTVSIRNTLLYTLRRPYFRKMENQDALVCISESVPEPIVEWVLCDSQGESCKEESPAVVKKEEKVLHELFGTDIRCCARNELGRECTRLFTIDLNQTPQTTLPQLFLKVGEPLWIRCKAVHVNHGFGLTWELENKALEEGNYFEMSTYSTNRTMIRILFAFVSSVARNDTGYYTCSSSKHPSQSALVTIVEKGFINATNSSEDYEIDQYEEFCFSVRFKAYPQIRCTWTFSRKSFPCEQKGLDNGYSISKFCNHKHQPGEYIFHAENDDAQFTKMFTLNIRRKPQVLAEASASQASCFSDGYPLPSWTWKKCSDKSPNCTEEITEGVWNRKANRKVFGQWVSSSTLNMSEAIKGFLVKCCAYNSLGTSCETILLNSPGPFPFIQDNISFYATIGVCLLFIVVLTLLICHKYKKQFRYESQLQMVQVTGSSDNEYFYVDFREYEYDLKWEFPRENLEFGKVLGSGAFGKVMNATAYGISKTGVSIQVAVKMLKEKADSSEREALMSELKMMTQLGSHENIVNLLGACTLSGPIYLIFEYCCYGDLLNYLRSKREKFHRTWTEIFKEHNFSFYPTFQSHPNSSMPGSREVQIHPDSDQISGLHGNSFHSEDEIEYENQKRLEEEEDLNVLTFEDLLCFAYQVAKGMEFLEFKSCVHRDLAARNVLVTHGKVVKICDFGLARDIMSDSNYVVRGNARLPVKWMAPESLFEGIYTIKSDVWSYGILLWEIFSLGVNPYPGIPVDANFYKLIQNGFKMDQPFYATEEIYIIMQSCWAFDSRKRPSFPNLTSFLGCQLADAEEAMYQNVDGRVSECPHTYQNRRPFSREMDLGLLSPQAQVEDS
# test: Inhibition of recombinant FLT3 (unknown origin) by TR-FRET assay
The meaning of pIC50 here: minus log10 of the concentration in molar units.

Consider the worked cases shown below.
molecule | pIC50
COc1cc(O)c(C(=O)OC(C)C)c(CCCN2C(=O)C=CC2=O)c1 | 6.37
COc1cc(O)c(C(=O)OCC(C)c2ccccc2)c(/C=C/CN2C(=O)C=CC2=O)c1 (stereo not drawn) | 5.52
COc1cc(O)c2c(c1)CCC[C@H](O)[C@H](O)C(=O)/C=C\C[C@H](C)OC2=O | 7.21

Proceeding to the next molecule to report its pIC50.
Can you look up the measured pIC50 of CC(C)OC(=O)c1c(O)cc(OCCCN2CCOCC2)cc1/C=C/CN1C(=O)C=CC1=O for me?
6.82

---

# targetUnderTest: Receptor-type tyrosine-protein kinase FLT3 (Homo sapiens)
# test: Inhibition of recombinant FLT3 (unknown origin) by TR-FRET assay
pIC50: −log10 of the molar value.
observationType: pIC50

Some entries whose results are on file:
smilesEntry | valueReported
CCN(CC)C/C=C/C(=O)NC/C=C/c1cc(OCCc2ccc(F)cc2)cc(O)c1C(=O)OC(C)C | < 4.52
COc1cc(O)c(C(=O)OCc2ccc(Br)cc2)c(/C=C/CN2C(=O)C=CC2=O)c1 | 5.72
C=CC(=O)NC/C=C/c1cc(OCCc2ccc(F)cc2)cc(O)c1C(=O)OC(C)C | < 4.52
C=CS(=O)(=O)NC/C=C/c1cc(OC)cc(O)c1C(=O)OCC1CCCCC1 | ≤ 4.52
C/C=C/C(=O)NC/C=C/c1cc(OCCc2ccc(F)cc2)cc(O)c1C(=O)OC(C)C | ≤ 4.52
CC(C)OC(=O)c1c(O)cc(OCCN2CCOCC2)cc1CCCN1C(=O)C=CC1=O | 6.24
COc1cc(O)c(C(=O)OC(C)C)c(/C=C/CNC(C)=O)c1 | < 4.30
C=CS(=O)(=O)NC/C=C/c1cc(OC)cc(O)c1C(=O)OC(C)C | 4.97

Fill in the blank: the reported pIC50 of CCN(CC)C/C=C/C(=O)NC/C=C/c1cc(OC)cc(O)c1C(=O)O[C@@H](C)C(C)C is ____.
≤ 4.52

---

# maps each entry to its pIC50
# targetUnderTest: Receptor-type tyrosine-protein kinase FLT3 (Homo sapiens, UniProt P36888, D835Y)
# test: Inhibition of recombinant FLT3 D835Y mutant (unknown origin) by TR-FRET assay
In plain terms, pIC50 is the concentration in mol/L turned into minus its base-10 logarithm.

Solved cases below.
compound | pIC50
C=CC(=O)NC/C=C/c1cc(OCCCN2CCOCC2)cc(O)c1C(=O)OC(C)C | 5.55
COc1cc(O)c(C(=O)OC(C)C)c(CCCN2C(=O)C=CC2=O)c1 | 5.52
COc1cc(/C=C/CN2C(=O)C=CC2=O)c(C(=O)OC(C)C)c(OC(C)=O)c1 | 5.44
COc1cc(O)c(C(=O)OC(C)C)c(/C=C/CN2C(=O)C=CC2=O)c1 | 5.87
COc1cc(O)c(C(=O)OCc2ccc(Br)cc2)c(/C=C/CN2C(=O)C=CC2=O)c1 | 5.76
COc1cc(O)c(C(=O)OCc2ccc(F)cc2)c(/C=C/CN2C(=O)C=CC2=O)c1 | 6.02
CC(C)OC(=O)c1c(O)cc(OCCN2CCOCC2)cc1CCCN1C(=O)C=CC1=O | 6.09
COc1cc(O)c2c(c1)CCC[C@H](O)[C@H](O)C(=O)/C=C\C[C@H](C)OC2=O | 7.96

Consider the compound CC(C)OC(=O)c1c(O)cc(OCCCN2CCOCC2)cc1/C=C/CN1C(=O)C=CC1=O and give its measured pIC50.
6.03

Would you kindly repeat that for C=CS(=O)(=O)NCCCc1cc(OCCN2CCOCC2)cc(O)c1C(=O)OC(C)C ?
4.73

One more compound: COc1cc(O)c(C(=O)OCC2CCCCC2)c(/C=C/CN2C(=O)C=CC2=O)c1
5.68

Can you check COc1cc(O)c(C(=O)OC(C)C)c(/C=C/CNC(C)=O)c1 next?
4.85

Note, next up: C/C=C/C(=O)NC/C=C/c1cc(OCCCN2CCOCC2)cc(O)c1C(=O)OC(C)C
4.98

Please answer likewise for C=CS(=O)(=O)NC/C=C/c1cc(OC)cc(O)c1C(=O)OC(C)C
4.92

Input COc1cc(O)c(C(=O)OCC(C)c2ccccc2)c(/C=C/CN2C(=O)C=CC2=O)c1 (configuration not stated)
5.28

Would you kindly repeat that for CCN(CC)C/C=C/C(=O)NC/C=C/c1cc(OC)cc(O)c1C(=O)OC(C)C ?
4.80

---

# targetUnderTest: Receptor-type tyrosine-protein kinase FLT3 (Homo sapiens)
# test: Inhibition of recombinant FLT3 (unknown origin) by TR-FRET assay
Measured IC50 by item
Answer with a number only, understood to be in µM.

The examples below pair each entry with its known result.
smilesEntry | IC50 (µM)
COc1cc(O)c(C(=O)OCc2ccc(F)cc2)c(/C=C/CN2C(=O)C=CC2=O)c1 | 1.64
C/C=C/C(=O)NC/C=C/c1cc(OCCCN2CCOCC2)cc(O)c1C(=O)OC(C)C | 16.2
COc1cc(O)c(C(=O)OCC2CCCCC2)c(/C=C/CN2C(=O)C=CC2=O)c1 | 2.69
C=CC(=O)NC/C=C/c1cc(OCCCN2CCOCC2)cc(O)c1C(=O)OC(C)C | 9.61
COc1cc(/C=C/CN2C(=O)C=CC2=O)c(C(=O)OC(C)C)c(OC(C)=O)c1 | 3.37

State the recorded IC50 for this entry: COc1cc(O)c(C(=O)OC(C)C)c(/C=C/CN2C(=O)C=CC2=O)c1
0.54

// provenance: ChEMBL document CHEMBL3352474
